- Procedure details: AUC (0 to 12hrs) in Sprague-Dawley rat at 10 mg/kg, po by LC-MS/MS analysis
- Type: ADME, organism-based
- Experimental parameters: in vivo

Record smiles	AUC(0-t) [ng·h/mL]
N#Cc1cccc(CN2CCC=C(C(=O)NCc3ccc(C(F)(F)F)cc3)C2)c1	777

====

- Procedure details: AUC (0 to 12hrs) in Sprague-Dawley rat at 5 mg/kg, iv by LC-MS/MS analysis
- Assay type: ADME, organism-based
- Experimental parameters: in vivo

Record smiles	Value units	AUC(0-t)
Cc1ccccc1CN1C(=O)C2=C(CCN(Cc3ccccc3)C2)N2CCN=C12	ng·h/mL	1960

Taken from ChEMBL document CHEMBL5528050.
